Test system: U251 CNS
RUN DESCRIPTION: NCI tumour cell line growth inhibition, 48 h
ATTRIBUTE MEASURED: TGI

[[record]]
compound = "CN(C)c1ccc(/C=C/C2=[N+](C)c3ccccc3C2(C)C)cc1"
attribute_measured = "TGI"
result = "12.6 µM"

[[record]]
compound = "O=Cc1ccc(CCl)cc1"
attribute_measured = "TGI"
result = "35.4 µM"

[[record]]
compound = "N#C[Se]CCCNS(=O)(=O)C1CC2C=CC1C2 (stereo not drawn)"
attribute_measured = "TGI"
result = "3.36 µM"

[[record]]
compound = "CS(=O)(=O)CC(=O)c1ccccc1"
attribute_measured = "TGI"
result = "> 100 µM"

[[record]]
compound = "COc1cc([N+](=O)[O-])c(OC)cc1-c1nc2sc(Cl)cn2c1/C=N/NC1=NCCN1"
attribute_measured = "TGI"
result = "3.02 µM"

[[record]]
compound = "COC1=CC(c2ccc[nH]2)=N/C1=C\\c1[nH]c(C)c(C(=O)CCCCC(=O)Oc2ccc3c(c2)CCC2C3CC[C@]3(C)[C@@H](O)CC[C@@H]23)c1C (stereo partly drawn)"
attribute_measured = "TGI"
result = "> 100 µM"

[[record]]
compound = "CC(=O)C1=C(C)N(c2ccc(C)cc2)C2(O)C3=C(C(=O)c4ccccc4C3=O)C(O)=CC12Cl (stereo not drawn)"
attribute_measured = "TGI"
result = "> 100 µM"

[[record]]
compound = "CC(=O)NC1C(OCc2ccccc2)OC(COC(=O)CCCCCCCCCCNc2ccc([N+](=O)[O-])c3[nH]c4ccccc4c(=O)c23)C(O)C1OC(C)C(=O)NC(C)C(=O)NC(CCC(N)=O)C(=O)OCc1ccccc1 (stereo not drawn)"
attribute_measured = "TGI"
result = "> 100 µM"

[[record]]
compound = "Cc1ccc(NC(=O)c2sc3nc4c(cc3c2N)C(=O)CCC4)cc1C"
attribute_measured = "TGI"
result = "> 56.7 µM"

[[record]]
compound = "CCN(CC)C1CCC(Nc2c(C(C)=O)cnc3ccc(-c4ccc(O)c(Cl)c4)cc23)CC1 (stereo not drawn)"
attribute_measured = "TGI"
result = "17 µM"

[[record]]
compound = "COc1cc(-c2c(C#N)c(N)nc(N3CCOCC3)c2C#N)cc(OC)c1OC"
attribute_measured = "TGI"
result = "> 100 µM"

[[record]]
compound = "COC(=O)[C@H](CC(C)C)Nc1c(O)c2c(c(O)c1Cl)C(=O)C=CC2=O"
attribute_measured = "TGI"
result = "> 10 µM"

[[record]]
compound = "NCC1OC(OC2C(CO)OC(OC3C(O)C(N)CC(N)C3OC3OC(CO)C(O)CC3N)C2O)C(N)C(O)C1OC1OC(CO)C(O)C(O)C1O (stereo not drawn)"
attribute_measured = "TGI"
result = "> 50 µg/mL"

[[record]]
compound = "CC(=O)OC12COC1CC(O)C1(C)C(=O)C(O)C3=C(C)C(O)CC(O)(C(OC(=O)c4ccccc4)C21)C3(C)C (stereo not drawn)"
attribute_measured = "TGI"
result = "> 74.3 µM"

[[record]]
compound = "NCCNCc1c2ccccc2c(CNCCN)c2ccccc12"
attribute_measured = "TGI"
result = "97.7 µM"

[[record]]
compound = "O=C(Nc1ccc(/C=C/c2ccc(NC(=O)c3cc(S(=O)(=O)O)c4cccnc4c3O)cc2S(=O)(=O)O)c(S(=O)(=O)O)c1)c1cc(S(=O)(=O)O)c2cccnc2c1O"
attribute_measured = "TGI"
result = "> 22.4 µM"

[[record]]
compound = "COC(=O)C1(C(=O)OC)N=C(C)OC1/C=C/c1ccccc1 (stereo not drawn)"
attribute_measured = "TGI"
result = "> 100 µM"

[[record]]
compound = "COC(=O)C1=C(C(=O)OC)C2(C)Nc3ccccc3C2=C(c2ccccc2)C1 (stereo not drawn)"
attribute_measured = "TGI"
result = "41.6 µM"


* * *

Tested on: M14 melanoma
RUN DESCRIPTION: NCI tumour cell line growth inhibition, 48 h; in the data active = GI50 below about 0.43 µM; inactive = the rest
Classes used: T for active, F for inactive

[[record]]
compound = "COC1=CC(c2ccc[nH]2)=N/C1=C\\c1[nH]c(C)c(C(=O)CCCCC(=O)Oc2ccc3c(c2)CCC2C3CC[C@]3(C)[C@@H](O)CC[C@@H]23)c1C (stereo not given in full)"
group = "F"

[[record]]
compound = "Cc1c(O)c2c(c(O)c1Br)C(=O)C=CC2=O"
group = "F"

[[record]]
compound = "CC(=O)c1cc(C(=O)c2ccc3c(c2)Sc2ccccc2N3)c2cc(C)ccn12"
group = "T"

[[record]]
compound = "CC(=O)Oc1ccc(/C(=C(\\C)c2ccc(Cl)cc2)c2ccc(OCCN3CCCCC3)cc2)cc1"
group = "F"

[[record]]
compound = "COc1ccc(-n2ccnc2-c2cc(OC)c(OC)c(OC)c2)cc1"
group = "F"

[[record]]
compound = "Cc1cc(N(CCCl)CCCl)ccc1C=Nc1ccc2ccccc2c1"
group = "F"

[[record]]
compound = "Cn1c(=O)c(Oc2ccc(F)cc2F)cc2cnc(NC3CCS(=O)(=O)CC3)nc21"
group = "F"

[[record]]
compound = "COc1ccc(/C=C/C(=O)c2ccc(OC)c(OC)c2)cc1O"
group = "F"

[[record]]
compound = "O=c1oc2ccc(Br)cc2c(=O)n1-c1ccc(I)cc1F"
group = "T"

[[record]]
compound = "Cn1cc(C2=C(c3cn(C)c4ccccc34)C(=O)NC2=O)c2ccccc21"
group = "F"


* * *

Tested on: HCT-15 colon
RUN DESCRIPTION: NCI tumour cell line growth inhibition, 48 h
Reported log10 TGI values for the following compounds.
ATTRIBUTE MEASURED: log10 TGI (log10 of the value in µM)

[[record]]
compound = "COc1ccc2[nH]c3c(C)c4ccnc(NCCCN(C)CCCNc5ccc6ncn7c8ccccc8c(=O)c5c67)c4c(C)c3c2c1"
result = 0.54

[[record]]
compound = "O=C1c2ccccc2-c2c1c1ccccc1c(=O)n2CCCNCCCCNCCCN1C(=O)c2ccccc2C2C(=O)c3ccccc3C21 (stereo not given)"
result = -0.07

[[record]]
compound = "CN(C)c1ccc(/C=C/C2=[N+](C)c3ccccc3C2(C)C)cc1"
result = 1.27

[[record]]
compound = "O=c1oc2ccc(Br)cc2c(=O)n1-c1ccc(I)cc1F"
result = 0.78

[[record]]
compound = "CN1CCN(Cc2ccc(NC(=O)c3cccc(C#Cc4cnc(N)c5ncccc45)c3F)cc2C(F)(F)F)CC1"
result = 0.13

[[record]]
compound = "COc1ccc(/C=C/C(=O)c2ccc(OC)c(OC)c2)cc1O"
result = 1.52

[[record]]
compound = "CCOC(=O)C(C(=S)SC)c1nn2c(=O)cc(C)nc2s1 (stereo not given)"
result = 1.55

[[record]]
compound = "CN1C/C=C/CCOc2cccc(c2)-c2ccnc(n2)Nc2cccc(c2)C1"
result = 0.50


* * *

System: OVCAR-3 ovarian
RUN DESCRIPTION: NCI tumour cell line growth inhibition, 48 h
*1 amine or outer side, *2 acyl side, *3 side chain or, on linkers, in order; H or OH if unused. Where a SMILES comes first, the peptide text is derived from it. [ ]: non-standard residue; d: D form. The star is where a group is joined. X31 = CC(=O)N(C)SCC(N[*:1])C(=O)[*:2]; Cbz = O=C(OCc1ccccc1)*; Bn = c1ccc(C*)cc1
TGI below 20 µM gives F; TGI at or above it gives T.

[[record]]
molecule = "CC1(c2ccccc2)CC(c2cccc([N+](=O)[O-])c2)=NO1 (configuration not stated)"
group = "T"

[[record]]
molecule = "CCCCCCCCCCCCCCCCC(=O)O.CCCCCCCCCCCCCCCCCC(=O)O.CCCCCCCCCCCCCCCCCC(=O)O.CCCCCCCCCCCCCCCCCC(=O)O.CCCCCCCCCCCCCCCCCC(=O)O.CO[CH-]OC12COC1CC(O)C1(C)C(O)C(OC(C)O)C3=C(C)C(OC(=O)C(O)C([NH-])c4ccccc4)CC(O)(C(OC(=O)c4ccccc4)C21)C3(C)C.[Cu+].[Zn].[Zn].[Zn].[Zn].[Zn] (configuration not stated)"
group = "F"

[[record]]
molecule = "COc1ccc2cc(-c3nc(N)nc(N4N=C(C)CC4(C)C)n3)c(=N)oc2c1"
group = "T"

[[record]]
molecule = "O=C1c2ccccc2-c2c1c1ccccc1c(=O)n2CCCNCCCCNCCCN1C(=O)c2ccccc2C2C(=O)c3ccccc3C21 (configuration not stated)"
group = "F"

[[record]]
molecule = "COc1cc([C@@H]2C[C@H]2c2cc(SC)n[nH]2)cc(OC)c1OC"
group = "T"

[[record]]
molecule = "Cc1ccc(NC(=O)/C(Cl)=C(/Cl)C(=O)O)cc1"
group = "T"

[[record]]
molecule = "CCCCCC/C=C1\\CCC(CN2CCOCC2)C1=O (configuration not stated)"
group = "T"

[[record]]
molecule = "C[C@@H](Oc1ccc(C(=O)NS(=O)(=O)C(C)(C)C)cc1C(F)(F)F)c1ccc(Oc2ccccc2)cn1"
group = "F"

[[record]]
molecule = "COc1cc2c(cc1OC)C(=O)/C(=C/c1cc(OC)c(OC)c(OC)c1)C2"
group = "T"

[[record]]
molecule = "CC#CC1C2CCCC1(CSc1ccccc1)NC(=O)O2 (configuration not stated)"
group = "T"

[[record]]
molecule = "Oc1cc2ccccc2c(-c2c(O)c(O)cc3ccccc23)c1O"
group = "F"

[[record]]
molecule = "Cc1ccc(NC(=O)c2sc3nc4c(cc3c2N)C(=O)CCC4)cc1C"
group = "F"

[[record]]
molecule = "COc1cc(C(=O)N/N=C/c2ccc(N(C)C)cc2)cc(OC)c1OC"
group = "F"

[[record]]
molecule = "NC12CCC(CC1=O)C2 (configuration not stated)"
group = "T"

[[record]]
molecule = "OCCOc1ccccc2cccc1-2"
group = "T"

[[record]]
molecule = "COc1ccc2nc3ccc(OC)cc3c(SCc3ccccc3)c2c1"
group = "T"

[[record]]
molecule = "CC(C)(C)c1cc2c(O)c(c1)Cc1cc(C(C)(C)C)cc(c1O)Cc1cc(C(C)(C)C)cc(c1O)Cc1cc(C(C)(C)C)cc(c1O)Cc1cc(C(C)(C)C)cc(c1O)Cc1cc(C(C)(C)C)cc(c1O)Cc1cc(C(C)(C)C)cc(c1O)Cc1cc(C(C)(C)C)cc(c1O)C2"
group = "T"

[[record]]
molecule = "CC(=O)N(C)SCC(NC(=O)C(Cc1ccccc1)NC(=O)OCc1ccccc1)C(=O)NC(Cc1ccccc1)C(=O)NC(Cc1c[nH]c2ccccc12)C(=O)NC(CCCCNC(=O)OCc1ccccc1)C(=O)NC(C(=O)NC(CSN(C)C(C)=O)C(=O)NC(C(N)=O)C(C)OCc1ccccc1)C(C)OCc1ccccc1 (configuration not stated) (Cbz-F[X31]FWK(Cbz)T(Bn)[X31]T(Bn)-NH2; configuration not given here)"
group = "T"

[[record]]
molecule = "NN1C(=O)C(CCO)S/C1=N/N=C1/SC(CCO)C(=O)N1N (configuration not stated)"
group = "T"

[[record]]
molecule = "Nc1cc(=O)n(-c2ccccc2)c(=S)n1-c1ccccc1"
group = "T"

[[record]]
molecule = "CS(=O)(=O)CC(=O)c1ccccc1"
group = "T"

[[record]]
molecule = "CC1CCC2(CC1)NC1=C(CC(C)CC1)C1=C2CC(C)CC1 (configuration not stated)"
group = "T"

[[record]]
molecule = "COC(=O)CCC(C)C1CCC2C3C(C[C@H](OC(C)=O)[C@]12C)[C@@]1(C)CCC2(C[C@H]1C[C@H]3OC(C)=O)OOC1(CC[C@]3(C)C4C[C@H](OC(C)=O)[C@]5(C)C(C(C)CCC(=O)OC)CCC5C4[C@H](OC(C)=O)C[C@@H]3C1)OO2 (some centres not stated)"
group = "T"

[[record]]
molecule = "COC(=O)[C@H](Cc1ccc(OC(C)(C)C)cc1)N[C@H](C)C(=O)N[C@@H](Cc1ccccc1)C(=O)OCc1ccccc1"
group = "T"

[[record]]
molecule = "COc1ccc(/C=C2\\CCC/C(=C\\c3ccc(O)c(CN4CCCCC4)c3)C2=O)cc1"
group = "T"

[[record]]
molecule = "O=Cc1ccc(CCl)cc1"
group = "T"

[[record]]
molecule = "O=C(c1ccco1)c1c(C(F)(F)F)n([O-])c2ccc(Cl)cc2[n+]1=O"
group = "F"

[[record]]
molecule = "O=C(Nc1ccc(/C=C/c2ccc(NC(=O)c3cc(S(=O)(=O)O)c4cccnc4c3O)cc2S(=O)(=O)O)c(S(=O)(=O)O)c1)c1cc(S(=O)(=O)O)c2cccnc2c1O"
group = "T"

[[record]]
molecule = "C=CCOC(=O)C1=C(CCC[C@@H](C)O[Si](C)(C)C(C)(C)C)N=C(N)N2[C@H](CCO)CC[C@@H]12"
group = "T"

[[record]]
molecule = "O=C1c2cc([N+](=O)[O-])ccc2-c2ccc3c4ccc5c6c(ccc(c7ccc1c2c73)c64)C(=O)c1cc([N+](=O)[O-])ccc1-5"
group = "T"

[[record]]
molecule = "O=C(O)CC(Sc1ccccc1)c1ccccc1 (configuration not stated)"
group = "T"

[[record]]
molecule = "O=C(NCCNCCCNC(=O)c1cc(-c2ccccc2)nc2ccccc12)c1cccc(OCc2ccccc2)c1OCc1ccccc1"
group = "F"

